test system: Mycobacterium kansasii 235/80; assay: Antimycobacterial micromethod in Šula's medium, M. kansasii 235/80; format: cell-based; settings: 235/80, 336 h, 14 days incubation at 37 °C, read-out: MIC M. kansasii 235/80 14 d
Recorded MIC values for a group of molecules are listed next.
Measured property: MIC (µM)

>>> df
                                    molecule  qualifier_symbol  endpoint_result
 0       O=C(O)c1ccc(N=Cc2cc(Cl)cc(I)c2O)cc1                 =              500
 1         Cc1ccc(O)c(C=Nc2ccc(C(=O)O)cc2)c1                 =              500
 2              O=C(O)c1ccc(N=Cc2ccccc2O)cc1                 >             1000
 3          O=C(O)c1ccc(N=Cc2c(O)cccc2Cl)cc1                 =              500
 4           O=C(O)c1ccc(N=Cc2cc(F)ccc2O)cc1                 =              500
 5  NNC(=O)c1ccncc1 [INH, isoniazid, reference compound]                 >              250
 6          O=C(O)c1ccc(N=Cc2cccc(Cl)c2O)cc1                 =              500
 7  CC(C)(C)c1ccc(O)c(C=Nc2ccc(C(=O)O)cc2)c1                 =              125
 8                         Nc1ccc(C(=O)O)cc1                 >             1000
 9          O=C(O)c1ccc(N=Cc2ccc(Cl)cc2O)cc1                 =              500
10           O=C(O)c1ccc(N=Cc2cc(I)ccc2O)cc1                 =              250
11  O=C(O)c1ccc(N=Cc2cc([N+](=O)[O-])ccc2O)cc1                 =              500
